Please provide measured growth inhibition for the entries that follow.
assay: NCI Yeast Anticancer Drug Screen. Data for the mec2-1 strain (AID 157); settings: S. cerevisiae mec2-1 strain, at 50.0 µM, active compounds read high
This is part of a sample that, as a whole, favours compounds with a hit. Of some 79,000 tested, about 15% had one in any assay.
Numbers only, in %.

Below is a list of compounds. For each, state its recorded growth inhibition.
1. CC(C)NCC(O)COc1cccc2ccccc12 (stereo unspecified)
2. O=c1[nH][nH]c(=O)c(Cl)c1Cl

Response:
1: -32.2; 2: 1.6

Below are some compounds; for each one, tell me its growth inhibition.
1. O=Nc1ccc(O)cc1Cc1ccccc1
2. O=[N+]([O-])c1ccccc1SCl
3. O=[N+]([O-])c1nccn1CCCN=c1c2ccccc2n(O)c2ccccc12
4. Cn1ccc2c3ccsc3ccc21

Response:
1: -5.95; 2: 5.5; 3: -16.4; 4: 6.35

---

Assay: NCI Yeast Anticancer Drug Screen. Data for the sgs1 mgt1 strain (AID 161);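 further: 0% = growth of cultures given vehicle only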
Details: S. cerevisiae sgs1 mgt1 strain, at 50.0 µM
Description: Growth inhibition of yeast strains with defined genetic alterations is measured as a screen for potential anti-cancer activity. Selected strains with alterations in DNA damage repair or cell cycle control were exposed to compounds and growth inhibition was measured relative to vehicle treated controls. The strain used in this assay is sgs1 mgt1
About 79,000 compounds went through this panel and 15% of them were active in at least one assay; those are over-represented in the sample as a whole. The source made the active and inactive calls. No stated cut-off is given here; in the data, active means growth inhibition above about 70%; inactive means the rest.
Response enum: active, inactive

[
  {
    "Compound": "COc1ccc(/C=C\\c2cc(OC)c(OC)c(OC)c2)cc1OC",
    "Class": "inactive"
  },
  {
    "Compound": "CC[O-].CC[O-].COc1ccc(C(=O)[CH-]C(C)=O)cc1OC.COc1ccc(C(=O)[CH-]C(C)=O)cc1OC.[Ti+4]",
    "Class": "inactive"
  },
  {
    "Compound": "COc1cc2c(NCCCCCCO[N+](=O)[O-])ncnc2c(OC)c1OC",
    "Class": "inactive"
  },
  {
    "Compound": "CCOC(=O)C1=C(C)N(NC(=O)OC)C2(N)N(NC(=O)OC)C(C)=C(C(=O)OCC)C12C#N (stereo not given)",
    "Class": "inactive"
  },
  {
    "Compound": "CN(C)C(=O)Nc1ccc(C#N)cc1",
    "Class": "inactive"
  }
]

Attention now turns to another entry.
Query: In this assay, the call recorded for `C[CH2][Ge]([CH2]C)([CH2]C)[O]C(=O)CCC(=O)[O][Ge]([CH2]C)([CH2]C)[CH2]C` was what?
Response: inactive

---

Would you kindly list growth inhibition for each of these compounds?
assay: NCI Yeast Anticancer Drug Screen. Data for the sgs1 mgt1 strain (AID 161);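 further: 0% = growth of cultures given vehicle only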; settings: S. cerevisiae sgs1 mgt1 strain, at 50.0 µM, active compounds read high
This is part of a sample that, as a whole, favours compounds with a hit. Of some 79,000 tested, about 15% had one in any assay. Activity calls are given as the source filed them. No stated cut-off is given here; in the data, active means growth inhibition above about 70%; inactive means the rest.

Solved cases (3 shown):
[
  {
    "Compound": "CC(C)C1=CC23CCC4C(C)(C(=O)O)CCCC4(C)C2CC1C1C(=O)N(c2ccccc2)C(=O)C13 (stereo not given)",
    "Assay readout": "growth inhibition",
    "Reported value": "1.55% (inactive)"
  },
  {
    "Compound": "Cc1ccccc1I",
    "Assay readout": "growth inhibition",
    "Reported value": "-3.2% (inactive)"
  },
  {
    "Compound": "CCNc1ccc(C)cc1",
    "Assay readout": "growth inhibition",
    "Reported value": "0.1% (inactive)"
  }
]

Would you mind giving growth inhibition for every compound in the list below?
1. COC1O[C@H]2CCN(C(=O)OCc3ccccc3)[C@H]2[C@H]1OCc1ccccc1 (stereo not given in full)
2. Nc1nc(Sc2ccccn2)ccc1[N+](=O)[O-]

Response:
1. 20.2% (inactive)
2. -2.1% (inactive)
